Source: patent US20240269298A1

Assay: Pharmacokinetic test in mice
Format: in vivo
Settings: male, ICR, mouse, po, administration i.g. (10 mg/kg), plasma
readout.kind: half-life (h)

Look over these answered cases.
COc1cc(N2CCC(N3CCN(C(=O)CNc4cccc5c4C(=O)N(C4CCC(=O)NC4=O)C5=O)CC3)CC2)ccc1Nc1ncc(Cl)c(Nc2ccccc2P(C)(C)=O)n1 (stereo not shown) [Control compound B, reference compound] : 1.23
COc1cc(N2CCC(CN3CCN(c4ccc5c(c4)C(=O)N(C4CCC(=O)NC4=O)C5=O)CC3)CC2)c(-c2cnn(C)c2)cc1Nc1ncc(Cl)c(Nc2ccc(-c3ccccc3F)cc2P(C)(C)=O)n1 (stereo not shown) [Compound 102] : 9.49
COc1cc(N2CCC(CN3CCN(c4ccc5c(c4)C(=O)N(C4CCC(=O)NC4=O)C5=O)CC3)CC2)c(-c2cnn(C)c2)cc1Nc1ncc(Cl)c(Nc2ccccc2P(C)(C)=O)n1 (stereo not shown) [Compound 109] : 4.53
COc1cc(N2CCC(CN3CCN(c4ccc5c(c4)C(=O)N(C4CCC(=O)NC4=O)C5=O)CC3)CC2)c(-c2cnn(C)c2)cc1Nc1ncc(Br)c(Nc2ccccc2P(C)(C)=O)n1 (stereo not shown) [Compound 108] : 4.83
COc1cc(N2CCN(C3CCN(c4ccc5c(c4)C(=O)N(C4CCC(=O)NC4=O)C5=O)CC3)CC2)c(-c2cnn(C)c2)cc1Nc1ncc(Cl)c(Nc2ccc(-c3ccccc3)cc2P(C)(C)=O)n1 (stereo not shown) [Compound 100] : 2.49

I. COc1cc(N2CCC(CN3CCN(c4ccc5c(c4)C(=O)N(C4CCC(=O)NC4=O)C5=O)CC3)CC2)c(-c2cnn(C)c2)cc1Nc1ncc(Br)c(Nc2ccc(C3CC3)cc2P(C)(C)=O)n1 (stereo not shown) [Compound 106]
II. COc1cc(N2CCC(CN3CCN(c4ccc5c(c4)C(=O)N(C4CCC(=O)NC4=O)C5=O)CC3)CC2)c(-c2cnn(C)c2)cc1Nc1ncc(Cl)c(Nc2ccc(F)cc2P(C)(C)=O)n1 (stereo not shown) [Compound 142]
III. COc1cc(N2CCN(c3ccc4c(c3)C(=O)N(C3CCC(=O)NC3=O)C4=O)CC2)c(-c2cnn(C)c2)cc1Nc1ncc(Cl)c(Nc2ccc(-c3ccccc3)cc2P(C)(C)=O)n1 (stereo not shown) [Compound 98]
IV. COc1cc(N2CCC(N3CCN(CCOCC#Cc4cccc5c4CN(C4CCC(=O)NC4=O)C5=O)CC3)CC2)ccc1Nc1ncc(Cl)c(Nc2ccccc2P(C)(C)=O)n1 (stereo not shown) [Control compound A, reference compound]
V. COc1cc(N2CCN(CC3CCN(c4ccc5c(c4)C(=O)N(C4CCC(=O)NC4=O)C5=O)C3)CC2)c(-c2cnn(C)c2)cc1Nc1ncc(Cl)c(Nc2ccc(-c3ccccc3)cc2P(C)(C)=O)n1 (stereo not shown) [Compound 68]
**Query** Highest half-life first, then in falling order down to the smallest. // format: requested-order list of labels
**Result** I, III, II, V, IV
(I: 18 h, III: 10.9 h, II: 5.12 h, V: 3.47 h, IV: 1.54 h)

P. COc1cc(N2CCC(CN3CCN(c4ccc5c(c4)C(=O)N(C4CCC(=O)NC4=O)C5=O)CC3)CC2)c(-c2cnn(C)c2)cc1Nc1ncc(Br)c(Nc2ccc(-c3ccccc3F)cc2P(C)(C)=O)n1 (stereo not shown) [Compound 101]
Q. COc1cc(N2CCC(N3CCN(c4ccc5c(c4)C(=O)N(C4CCC(=O)NC4=O)C5=O)CC3)CC2)c(-c2cnn(C)c2)cc1Nc1ncc(Cl)c(Nc2ccc(-c3ccccc3)cc2P(C)(C)=O)n1 (stereo not shown) [Compound 92]
R. COc1cc(N2CCN(CC3CCN(c4ccc5c(c4)C(=O)N(C4CCC(=O)NC4=O)C5=O)CC3)CC2)c(-c2cnn(C)c2)cc1Nc1ncc(Cl)c(Nc2ccc(-c3ccccc3)cc2P(C)(C)=O)n1 (stereo not shown) [Compound 90]
**Query** Put the items in order so that reported half-life rises from first to last. // format: requested-order list of labels
**Result** R, Q, P

a. COc1cc(N2CCC(CN3CCN(c4ccc5c(c4)C(=O)N(C4CCC(=O)NC4=O)C5=O)CC3)CC2)c(-c2cnn(C)c2)cc1Nc1ncc(Br)c(Nc2ccc(F)cc2P(C)(C)=O)n1 (stereo not shown) [Compound 141]
b. COc1cc(N2CCC(CN3CCN(c4ccc5c(c4)C(=O)N(C4CCC(=O)NC4=O)C5=O)CC3)CC2)c(-c2cnn(C)c2)cc1Nc1ncc(Cl)c(Nc2ccc(C3CC3)cc2P(C)(C)=O)n1 (stereo not shown) [Compound 107]
**Query** Kindly compare a with b and tell me which has the lower half-life figure. Kindly give the label for the entry you pick.
**Result** a
(a: 5.91 h, b: 13.9 h)
